Biological target: serotoninergic 5-HT2A receptor (Homo sapiens, UniProt P28223)
Sequence (P28223 whole entry): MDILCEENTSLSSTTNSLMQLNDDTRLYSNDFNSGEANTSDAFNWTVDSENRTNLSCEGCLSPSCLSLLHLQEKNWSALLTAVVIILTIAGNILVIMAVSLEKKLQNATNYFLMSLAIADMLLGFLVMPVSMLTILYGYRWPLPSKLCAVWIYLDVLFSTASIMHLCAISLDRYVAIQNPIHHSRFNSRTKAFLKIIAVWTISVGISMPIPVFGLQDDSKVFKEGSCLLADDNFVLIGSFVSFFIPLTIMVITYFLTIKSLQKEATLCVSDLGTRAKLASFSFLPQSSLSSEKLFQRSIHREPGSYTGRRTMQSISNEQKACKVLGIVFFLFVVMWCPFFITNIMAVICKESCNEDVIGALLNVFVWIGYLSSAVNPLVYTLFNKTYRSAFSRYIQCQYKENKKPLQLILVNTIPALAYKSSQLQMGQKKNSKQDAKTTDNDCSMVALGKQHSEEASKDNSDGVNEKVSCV
Assay: Binding assay 5-HT2A (h), [3H]ketanserin, HEK-293 cells
Set-up: expressed in transfected cells; host or cells: HEK-293 cells
Conditions: read-out: 5-HT2A
Method: The specific ligand binding to the receptors is defined as the difference between the total binding and the nonspecific binding determined in the presence of an excess of so unlabelled ligand. The specific Ligand binding to the receptor is defined as the difference between total and non-specific binding determined in the presence of an excess of unlabelled ligand. The compounds were tested at a concentration of 1×10^−6 M, and scintillation counting was the method of detection of ligand binding.
List of inhibition at 1 µM values.
measure: inhibition at 1 µM (%)

[[record]]
compound = "Cc1c(S(=O)(=O)NCCCCN2CCC(c3noc4cc(F)ccc34)CC2)sc2ccc(F)cc12 [Compound 101]"
unit_symbol = "%"
observed_result = 100

[[record]]
compound = "O=S(=O)(NCCCCN1CCN(c2cccc3[nH]ccc23)CC1)c1ccc(F)c(F)c1 [Compound 29]"
unit_symbol = "%"
observed_result = 64

[[record]]
compound = "O=S(=O)(NCCCN1CCC(c2noc3cc(F)ccc23)CC1)c1cnc2ccccn12 [Compound 356]"
unit_symbol = "%"
observed_result = 99

[[record]]
compound = "O=S(=O)(NCCCCN1CCC(c2noc3cc(F)ccc23)CC1)c1ccc2cc(Cl)ccc2c1 [Compound 97]"
unit_symbol = "%"
observed_result = 100

[[record]]
compound = "O=S(=O)(NCCCN1CCN(c2nsc3ccccc23)CC1)c1ccc(OC(F)(F)F)cc1 [Compound 259]"
unit_symbol = "%"
observed_result = 56

[[record]]
compound = "O=S(=O)(NCCCCN1CCN(c2nsc3ccccc23)CC1)c1cnc2ccccn12 [Compound 246]"
unit_symbol = "%"
observed_result = 88

[[record]]
compound = "O=S(=O)(NCCCCN1CCC(c2noc3cc(F)ccc23)CC1)c1c[nH]c2ncccc12 [Compound 323]"
unit_symbol = "%"
observed_result = 96

[[record]]
compound = "O=c1[nH]c2ccc(S(=O)(=O)NCCCCN3CCN(c4noc5ccccc45)CC3)cc2o1 [Compound 16]"
unit_symbol = "%"
observed_result = 100

[[record]]
compound = "O=C1COc2c(cccc2N2CCN(CCCCNS(=O)(=O)c3ccc(Cl)s3)CC2)N1 [Compound 431]"
unit_symbol = "%"
observed_result = 31

[[record]]
compound = "O=S(=O)(NCCCCN1CCN(c2nsc3ccccc23)CC1)c1c[nH]c2ncccc12 [Compound 247]"
unit_symbol = "%"
observed_result = 88

[[record]]
compound = "O=S(=O)(NCCCCN1CCN(c2noc3ccccc23)CC1)c1ccc2cn[nH]c2c1 [Compound 291]"
unit_symbol = "%"
observed_result = 83

[[record]]
compound = "O=S(=O)(NCCCN1CC=C(c2c[nH]c3ccc(F)cc23)CC1)c1cccc(O)c1 [Compound 437]"
unit_symbol = "%"
observed_result = 74

[[record]]
compound = "O=S(=O)(NCCCCN1CCN(c2nsc3ccccc23)CC1)c1cccc(O)c1 [Compound 231]"
unit_symbol = "%"
observed_result = 101

[[record]]
compound = "COc1cccc(S(=O)(=O)NCCCN2CCN(c3nsc4ccccc34)CC2)c1 [Compound 255]"
unit_symbol = "%"
observed_result = 84

[[record]]
compound = "Cn1ccc2c(S(=O)(=O)NCCCCN3CCC(c4noc5cc(F)ccc45)CC3)cccc21 [Compound 310]"
unit_symbol = "%"
observed_result = 99

[[record]]
compound = "O=S(=O)(NCCCCN1CCN(c2cccc3c2OCCO3)CC1)c1ccc(F)c(Cl)c1 [Compound 392]"
unit_symbol = "%"
observed_result = 64

[[record]]
compound = "N#Cc1cccc(S(=O)(=O)NCCCN2CCC(c3noc4cc(F)ccc34)CC2)c1 [Compound 338]"
unit_symbol = "%"
observed_result = 102

[[record]]
compound = "O=S(=O)(NCCCCN1CCN(c2nsc3ccccc23)CC1)c1ccc(OC(F)(F)F)cc1 [Compound 236]"
unit_symbol = "%"
observed_result = 89

[[record]]
compound = "O=S(=O)(NCCCCN1CCN(c2nsc3ccccc23)CC1)c1cccc(F)c1 [Compound 71]"
unit_symbol = "%"
observed_result = 94

[[record]]
compound = "O=S(=O)(NCCCN1CCC(c2noc3cc(F)ccc23)CC1)c1ccc(Br)cc1 [Compound 330]"
unit_symbol = "%"
observed_result = 93

[[record]]
compound = "O=S(=O)(NCCCCN1CCN(c2noc3ccccc23)CC1)c1ccc2ccccc2c1 [Compound 14]"
unit_symbol = "%"
observed_result = 100

[[record]]
compound = "O=S(=O)(NCCCN1CCC(c2noc3cc(F)ccc23)CC1)c1ccc2c(c1)CCO2 [Compound 350]"
unit_symbol = "%"
observed_result = 95

[[record]]
compound = "O=S(=O)(NCCCCN1CCC(c2noc3cc(F)ccc23)CC1)c1ccc(Cl)s1 [Compound 308]"
unit_symbol = "%"
observed_result = 102

[[record]]
compound = "N#Cc1cccc(S(=O)(=O)NCCCCN2CCN(c3nsc4ccccc34)CC2)c1 [Compound 73]"
unit_symbol = "%"
observed_result = 81

[[record]]
compound = "O=S(=O)(NCCCCN1CCC(c2noc3cc(F)ccc23)CC1)c1cc2ccc(Cl)cc2s1 [Compound 314]"
unit_symbol = "%"
observed_result = 102

[[record]]
compound = "O=S(=O)(NCCCCN1CCN(c2noc3ccccc23)CC1)c1c[nH]c2ncccc12 [Compound 89]"
unit_symbol = "%"
observed_result = 99

[[record]]
compound = "Cc1[nH]c2ccc(Cl)cc2c1C1=CCN(CCCCNS(=O)(=O)c2cccc3ccccc23)CC1 [Compound 366]"
unit_symbol = "%"
observed_result = 49

[[record]]
compound = "O=S(=O)(NCCCCN1CCN(c2cccc3[nH]ccc23)CC1)c1ccc2cc(Cl)ccc2c1 [Compound 358]"
unit_symbol = "%"
observed_result = 99

[[record]]
compound = "Cc1[nH]c2ccc(Cl)cc2c1C1=CCN(CCCCNS(=O)(=O)c2cccc(F)c2)CC1 [Compound 139]"
unit_symbol = "%"
observed_result = 41

[[record]]
compound = "O=S(=O)(NCCCCN1CCN(c2nsc3ccccc23)CC1)c1ccc2cn[nH]c2c1 [Compound 244]"
unit_symbol = "%"
observed_result = 96

[[record]]
compound = "O=S(=O)(NCCCN1CCC(c2noc3cc(F)ccc23)CC1)c1cccs1 [Compound 339]"
unit_symbol = "%"
observed_result = 82

[[record]]
compound = "O=c1[nH]c2ccc(S(=O)(=O)NCCN3CCN(c4nsc5ccccc45)CC3)cc2o1 [Compound 12]"
unit_symbol = "%"
observed_result = 99

[[record]]
compound = "O=S(=O)(NCCCN1CCN(c2nsc3ccccc23)CC1)c1ccc(F)c(Cl)c1 [Compound 64]"
unit_symbol = "%"
observed_result = 101

